The reported numbers originate from the supplement of paper PMC8728848.

# Lookup of reported glycan array binding signal (z-score) keyed by entry
# measured-on: Neu5Ac(a2-3)Gal(b1-4)GlcNAc(b1-6)[Neu5Ac(a2-3)Gal(b1-3)]GalNAc
# test-summary: glycan array binding signal (z-score within array); higher = stronger binding
# test-parameters: glycan notation: IUPAC condensed, linker removed
This excerpt belongs to a sample that is enriched for the strongest signals.
Reply: number alone, nothing else.

- binder: "Eosinophil cationic protein (ECP) (Homo sapiens), P12724 (protein) MVPKLFTSQICLLLLLGLMGVEGSLHARPPQFTRAQWFAIQHISLNPPRCTIAMRAINNYRWRCKNQNTFLRTTFANVVNVCGNQSIRCPHNRTLNNCHRSRFRVPLLHCDLINPGAQNISNCTYADRPGRRFYVVACDNRDPRDSPRYPVVPVHLDTTI"
  meas-value: -0.004

INPUT: If you can, please state the reported glycan array binding signal (z-score) value of GALT1 615 (Arabidopsis thaliana), Q8L7F9 (protein) DPMRGSHHHHHHGMASMTGGQQMGRDLYDDDDKSRLQKPYITAAASVVVTPNTTLPMEWLRITLPDFMKEARNTQEAISGDDIAVVSGLFVEQNVSKEEREPLLTWNRLESLVDNAQSLVNGVDAIKEAGIVWESLVSAVEAKKLVDVNENQTRKGKEELCPQFLSKMNATEADGSSLKLQIPCGLTQGSSITVIGIPDGLVGSFRIDLTGQPLPGEPDPPIIVHYNVRLLGDKSTEDPVIVQNSWTASQDWGAEERCPKFDPDMNKKVDDLDECNKMVGGEINRTSSTSLQSNTSRGVPVAREASKHEKYFPFKQGFLSVATLRVGTEGMQMTVDGKHITSFAFRDTLEPWLVSEIRITGDFRLISILA .
OUTPUT: -0.225

INPUT: If you can, please state the reported glycan array binding signal (z-score) value of LTL (Lotus tetragonolobus), P19664 (protein) VSFNYTEFKDDGSLILQGDAKIWTDGRLAMPTDPLVNNPKTTRSAGRALYATPVPIWDSATGNVASFVTSFNFLFVIRELKYTPTDGLVFFLAPVGTEIPSGSTGGFLGIFDGSNGFNQFVAVEFDSYHNIWDPKSLRSSHVGIDVNSIMSLKAVNWNRVSGSLEKATIIYDSQTNILSVVMTSQNGQITTIYGTIDLKTVLPEKVSVGFSATTGNPEREKHDIYSWSFTSTLKEPEEQA .
OUTPUT: -0.237

INPUT: If you can, please state the reported glycan array binding signal (z-score) value of rCnSL-proB (Clitocybe nebularis) (protein) PTFSPIFALLAFLPFGTLASLLPQTQLVFRINPNLPGPNDVFVGYRGTNNVVGAIYERDGIKDTPMNNGADAELGPGSYITDDLFTAQIFASGSAGNNPGTTATVCKIYADGVQWRGAPKGYLPVLYFGNGQAAEQTRQTYLQGLDIPGTAIRFANLAKTPNQGPTAPRQMVVPSGGLQTLLKASCFPANHAALPQVLSYFNVRAALPPGWNIRTGPEFPNWTN .
OUTPUT: -0.239

INPUT: If you can, please state the reported glycan array binding signal (z-score) value of XL-35 (Xenopus laevis) (protein) MLVHILLLLVTGGLSQSCDPVVIVASKNMVKQLDCDKFRNCKEIKDSNEEAQDGIYTLTSPDGISYQTFCDMTTNGGGWTLVASVHENNMAGKCTIGDRWSSQQGNRADYPEGDGNWANYNTFGSAGGATSDDYKNPGYYDIEAYNLGVWHVPNKTPLSVWRNSSLQRYRTTDGILFKHGGNLFSLYRIYPVKYGIGSCSKDSGPTVPVVYDLGSANLTASFYSPGFRSQFTPGYIQFRPINTEKAALALCPGMKMESCNVEHVCIGGGGYFPEADPRQCGDFAAYDFNGYGTKKFNSAGIEITEAAVLLFYL .
OUTPUT: -0.518

INPUT: If you can, please state the reported glycan array binding signal (z-score) value of ArathEULS3 TAP (Arabidopsis thaliana) (protein) IDENLYFQGGSMDEKTTGWRGGHVVEGLAGELEQLRARLEHHPQGQREPGGGGSLEITSLYKKAGFMEHHHQHHRHHQRDDGEDDRQSFGVPPPHVDAPPQPHGLYQSQPHFDPYAPTPQAPAPYRSETQFEPHAPPPYRSEPYFETPAPPPSFGHVSHVGHQSPNESYPPEHHRYGGYQQPSNSLLESHGDHSGVTHVAHHSSNQPQSSSGVYHKPDENRLPDNLAGLAGRATVKVYSKAEPNYNLTIRDGKVILAPADPSDEAQHWYKDEKYSTKVKDADGHPCFALVNKATGEAMKHSVGATHPVHLIRYVPDKLDESVLWTESKDFGDGYRTIRMVNNTRLNVDAYHGDSKSGGVRDGTTIVLWDWNKGDNQLWKIFPF .
OUTPUT: -1.05
